Origin of the recorded values: paper PMC8540953

procedure_text: Solubility and solution stability of CCG-211790
Type: physicochemical
assay_context: PEG/PG solution, aqueous with cosolvent or surfactant or cyclodextrin; ethanol (10%), propylene glycol (25%), PEG 400 (35%) and water (30%)
assay_metric: solubility

Asked: Need solubility, item COc1ccc2c(c1)-c1nc(SCC(F)(F)F)n(C)c(=O)c1C(C)(C)C2
Given back: ≤ 1000 µg/mL
